Tested on: K4 kissing-loop RNA reporter;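 note: bound reporter read as fluorescence of individual clusters on recovered sequencing chips by microscopy, with normalized cluster intensities fitted with a binding model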
Assay: apparent KD of K4 kissing-loop reporter; higher = weaker reporter binding
Conditions: Eterna round: R107; input ligand: FMN 200 uM
Consider the following sequences; for each one, report its apparent KD of K4 kissing-loop reporter.
The answer consists of two parts: a number and, after it, its unit.

// apparent KD of K4 kissing-loop reporter lookup, sequence = CGCAAGCAGCCAGUGAUGUUGGCCGCCUUGCGAGGACCGGUACGGCCGCCACUCGAAGGCGGCUACUGAUAAACCGUCUAACGGA [KL-XTryp-A9] , result: 0.112 µM

// apparent KD of K4 kissing-loop reporter lookup, sequence = UGUACCGAUUCAGGAUAUGUCGUCGAAAGACGAAAUGGAGUGAUGUUCCUUAAACUGCGAAAGCAGACAGAAGGGAAUUGGUACU [FmnBS 29 U9+A77] , result: 0.146 µM

// apparent KD of K4 kissing-loop reporter lookup, sequence = CGCGCCCAGCCGGAUACCAGUGACCCGCUGGGAACCGCGGGCCCAGAGUGAUGUUCGGGACACCCUUGGCAGCCGCCUGGGCGGC [#2 Same State - Theophylline B Attempt #9 (HarryS)] , result: 1.37 µM

// apparent KD of K4 kissing-loop reporter lookup, sequence = CUCACAGUGAUGUUGUGGGCCGAGAGUGAUACCAGCCGUAUUUGUGGCCCUUGGCAGCGCAAAAGCCGAGUGAUGUUCGAAUCGG [Same State Theophylline A GF 24] , result: 0.211 µM

// apparent KD of K4 kissing-loop reporter lookup, sequence = AAGGAAUGUAUAGAUUAUAUACAUUCAACAGAGGAUAUGCAUUAUUGCAGAAGGCUGAAUGCAGUGAUGUUGCAAUAAUUAUUUA [#09 K4 FMN A Same State] , result: 0.0605 µM

// apparent KD of K4 kissing-loop reporter lookup, sequence = AAGUGAUGUUGUAGUGAUGUUGUGAUGUUGCAGGAUAUAUAGUGAUGUAGAAGGGUAUGUACAGUUUUUUUUUUUGAGUGUUGAU [sscsmullin] , result: 0.0797 µM

// apparent KD of K4 kissing-loop reporter lookup, sequence = CGAAGAAAGGUAUGUGGGAUCUGCGCGUAACGAGGACCGGUACGGCCGCCACUCGACGUCGCAUACGGCCCAGUGAUGUUGGGUG [theeternabot_sameState_KL_Trp_A_14] , result: 0.074 µM

// apparent KD of K4 kissing-loop reporter lookup, sequence = AGUGAACGAGCGGCCGCCACUAACUGAGUGAUGUUCGUGAGUAGUGCUGUUCUCAUGAUUGUUUUUAGGACCGGGUUCGAUGUUG [ttbjmullin] , result: 0.483 µM

// apparent KD of K4 kissing-loop reporter lookup, sequence = UGAUACCAGACGGCCGCCACUGGGACCGGGAGUGAUGUUCCAAAUAAAAGAAACUCGGCCGCCACUAGGACCGGGUCUGGUAUCU [TrypBX 30 #DoubleAptamer #SwitchBubble] , result: 0.622 µM

// apparent KD of K4 kissing-loop reporter lookup, sequence = AAAGGAGUGGAAGGAUAUCCUGGUGUGGGUGGUGUUAGUGAUGUUGGUGGUGCAGUGAUGUUGCGCGGAGAAGGUCCGGUAUUGG [BDazzled - #2 - Exc. FMN B] , result: 0.485 µM

// apparent KD of K4 kissing-loop reporter lookup, sequence = GAACGGCGGGCGGCCGCCACUGGUAUACGAGUGAUGUUCGGAUAUACGUGAUGUAAGGUAAUUAACAGGACCGGGUCAGGGCCGG [whbob_SS_Tryp_B_t20] , result: 0.278 µM

// apparent KD of K4 kissing-loop reporter lookup, sequence = GUCCAACCUGGAGGAUAUCUGCUGUCCAGUGAUGUUGGACACUUUAGUAAAGGCCGGGUAGCCCGCAGAGAAGGCCGGAGUUGCC [Arceer] , result: 0.31 µM
